Origin of the recorded values: patent US20230242544A1

- TARGET_UNDER_TEST: Ba/F3_KRAS^G12D cells (Homo sapiens, UniProt P01116, G12D, cells depend on it)
- Sequence (P01116 whole entry G12D): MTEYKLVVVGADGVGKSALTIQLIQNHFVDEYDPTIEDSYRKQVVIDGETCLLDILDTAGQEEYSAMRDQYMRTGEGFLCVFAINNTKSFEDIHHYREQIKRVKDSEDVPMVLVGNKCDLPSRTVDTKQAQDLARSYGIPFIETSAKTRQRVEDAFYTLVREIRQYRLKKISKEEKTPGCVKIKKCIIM
- EXPERIMENTAL_DETAILS: Ba/F3 KRAS G12D cell proliferation assay (CellTiter-Glo)
- Format: cell-based
- EXPERIMENTAL_CONTEXT: treated for 3 days, cell-titer Glo, cell growth inhibition, read-out: BaF3_KRAS^G12D IC50
In this section we review reported GI50 values for a set of molecules.

* Oc1cc(-c2c(Cl)cc3c(N4CC5CCC(C4)N5)nc(OCCN4CCOCC4)nc3c2F)c2ccccc2c1 | 500 to 5000 nM
* C[C@@H]1CN(c2nc(OC[C@@]34CCCN3C[C@H](F)C4)nc3c(F)c(-c4cc(O)cc5ccccc45)c(Cl)cc23)[C@@H](C)CN1 | 500 to 5000 nM
* Oc1cc(-c2c(Cl)cc3c(N4CC5CCC(C4)N5)nc(OC[C@@]45CCCN4C[C@H](F)C5)nc3c2F)c2c(Cl)cccc2c1 (single isomer, unassigned) [Compound 103] | < 500 nM
* CN1CCC[C@H]1COc1nc(N2CC3CCC(C2)N3)c2cc(Cl)c(-c3nc(N)cc4ccccc34)c(F)c2n1 | 500 to 5000 nM
* CN1CCC[C@H]1COc1nc(N2CC3(CCNC3)C2)c2cc(Cl)c(-c3cc(O)cc4cccc(Cl)c34)c(F)c2n1 | > 5000 nM

I would be grateful if you could share the reported GI50 for Oc1cc(-c2c(Cl)cc3c(N4CCNCC4)nc(OC[C@@]45CCCN4C[C@H](F)C5)nc3c2F)c2ccccc2c1 .
500 to 5000 nM

---

- TARGET_UNDER_TEST: recombinant human KRAS^G12D protein (Homo sapiens, UniProt P01116, G12D)
- Sequence (P01116 1-188 isoform P01116-2 G12D): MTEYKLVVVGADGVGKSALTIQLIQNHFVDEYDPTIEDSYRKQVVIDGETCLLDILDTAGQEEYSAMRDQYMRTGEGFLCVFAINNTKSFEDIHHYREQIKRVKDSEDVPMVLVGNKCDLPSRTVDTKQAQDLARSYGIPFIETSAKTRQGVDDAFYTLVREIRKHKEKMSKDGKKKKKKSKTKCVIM
- EXPERIMENTAL_DETAILS: Temperature-dependent Fluorescence (TdF) KRAS G12D protein binding assay
- EXPERIMENTAL_CONTEXT: 6 μM KRAS^G12D protein, 10 μM compound, Sypro Orange; Kd calculated from the fluorescent shift
VALUE_TYPE: Kd

- CN(C)C1CCCN(c2nc(N3CC4CCC(C3)N4)c3cc(Cl)c(-c4cc(O)cc5ccccc45)c(F)c3n2)C1 (stereo not shown) [Compound 56]: > 5 µM
- Oc1cc(-c2c(Cl)cc3c(N4CC5CCC(C4)N5)nc(OC[C@]45CCCN4C[C@@H](F)C5)nc3c2F)c2c(Cl)cccc2c1 (single isomer, unassigned) [Compound 102]: > 5 µM
- Oc1cc(-c2c(Cl)cc3c(N4CC5CCC(C4)N5)nc(OC[C@@]45CCCN4C[C@H](F)C5)nc3c2F)c2c(Cl)c(F)ccc2c1 [Compound 74]: < 0.5 µM
- CN1CCC[C@H]1COc1nc(NC2CNC2)c2cc(Cl)c(-c3cc(O)cc4cccc(Cl)c34)c(F)c2n1 [Compound 15]: > 5 µM
- CN1CCC[C@H]1COc1nc(N2CC3CCC(C2)N3)c2cc(Cl)c(-c3nc(N)cc4ccccc34)c(F)c2n1 [Compound 27]: > 5 µM

Return Kd measured with recombinant human KRAS^G12D protein (Homo sapiens, UniProt P01116, G12D) given this molecule: Oc1cc(-c2c(OCC3CC3)cc3c(N4CC5CCC(C4)N5)nc(OC[C@@]45CCCN4C[C@H](F)C5)nc3c2F)c2c(Cl)cccc2c1 [Compound 124]
< 0.5 µM

Quick check: Kd on recombinant human KRAS^G12D protein (Homo sapiens, UniProt P01116, G12D), item Oc1cc(-c2c(Cl)cc3c(N4CC5CCC(C4)N5)nc(OC[C@@]45CCCN4C[C@H](F)C5)nc3c2F)c2c(Cl)c(F)ccc2c1 (single isomer, unassigned) [Compound 138] ?
< 0.5 µM

Give recombinant human KRAS^G12D protein (Homo sapiens, UniProt P01116, G12D) Kd for CN1CCN(c2nc(N3CC4CCC(C3)N4)c3cc(Cl)c(-c4cc(O)cc5ccccc45)c(F)c3n2)CC1 [Compound 83]
> 5 µM

API: value(readout= Kd, system= recombinant human KRAS^G12D protein (Homo sapiens, UniProt P01116, G12D), query= Oc1cc(-c2c(Cl)cc3c(N4CC5CCC(C4)N5)nc(OCC45CCCN4CCC5)nc3c2F)c2ccccc2c1 [Compound 85] )
< 0.5 µM

Find the measured Kd: item Cc1cccc2cccc(-c3c(Cl)cc4c(N5CC6CCC(C5)N6)nc(OC[C@@]56CCCN5C[C@H](F)C6)nc4c3F)c12 [Compound 131] , target or system recombinant human KRAS^G12D protein (Homo sapiens, UniProt P01116, G12D).
< 0.5 µM

---

This listing pairs compounds with measured Kd.
- TARGET_UNDER_TEST: recombinant human KRAS^G12D protein (Homo sapiens, UniProt P01116, G12D)
- EXPERIMENTAL_DETAILS: Temperature-dependent Fluorescence (TdF) KRAS G12D protein binding assay
- EXPERIMENTAL_CONTEXT: 6 μM KRAS^G12D protein, 10 μM compound, Sypro Orange; Kd calculated from the fluorescent shift

Given the entry Oc1cc(-c2c(Cl)cc3c(N4CC5CCC(C4)N5)nc(OC[C@@]45CCCN4C[C@H](F)C5)nc3c2F)c2ccccc2c1 (single isomer, unassigned) [Compound 108] , report its measured Kd.
> 5000 nM

Please report the recorded Kd for CN1CCC[C@H]1COc1nc(N2CC3CCC(C2)N3)c2cc(Cl)c(-c3cc(O)cc4ccccc34)c(F)c2n1 [Compound 2] .
< 500 nM

Query (compound): Oc1cccc(F)c1-c1c(Cl)cc2c(N3CC4CCC(C3)N4)nc(OCC34CCCN3CCC4)nc2c1F [Compound 63] ; field requested: Kd
500 to 5000 nM

---

- TARGET_UNDER_TEST: recombinant human KRAS^G12D protein (Homo sapiens, UniProt P01116, G12D)
- EXPERIMENTAL_DETAILS: Temperature-dependent Fluorescence (TdF) KRAS G12D protein binding assay
- EXPERIMENTAL_CONTEXT: 6 μM KRAS^G12D protein, 10 μM compound, Sypro Orange; Kd calculated from the fluorescent shift
pKd: −log10 of the molar value.
Collected pKd values appear next to each entry.

- C[C@@H]1CN(c2nc(OC[C@@]34CCCN3C[C@H](F)C4)nc3c(F)c(-c4cc(O)cc5ccccc45)c(Cl)cc23)[C@@H](C)CN1: < 5.30
- Cc1cccc2cc(O)cc(-c3c(Cl)cc4c(N5CC6CCC(C5)N6)nc(OC[C@@]56CCCN5C[C@H](F)C6)nc4c3F)c12 (single isomer, unassigned) [Compound 118]: > 6.30
- Oc1cc(-c2c(Cl)cc3c(N4CC5CCC(C4)N5)nc(OC[C@@]45CCCN4C[C@H](F)C5)nc3c2F)c2c(Cl)cccc2c1 [Compound 58]: > 6.30

Field request: pKd | item: CCc1cccc2cc(O)cc(-c3c(Cl)cc4c(N5CC6CCC(C5)N6)nc(OC[C@@]56CCCN5C[C@H](F)C6)nc4c3F)c12 (single isomer, unassigned) [Compound 133]
> 6.30

// query pKd value for entry CN(C)CCCOc1nc(N2CC3CCC(C2)N3)c2cc(Cl)c(-c3cccc4cccc(Cl)c34)c(F)c2n1
< 5.30

Which pKd reading was recorded for the compound CCc1cccc2cc(O)cc(-c3c(Cl)cc4c(N5CC6CCC(C5)N6)nc(OC[C@@]56CCCN5C[C@H](F)C6)nc4c3F)c12 (single isomer, unassigned) [Compound 134] ?
< 5.30

---

- TARGET_UNDER_TEST: Ba/F3_KRAS^G12D cells (Homo sapiens, UniProt P01116, G12D, cells depend on it)
- EXPERIMENTAL_DETAILS: Ba/F3 KRAS G12D cell proliferation assay (CellTiter-Glo)
- Format: cell-based
- EXPERIMENTAL_CONTEXT: treated for 3 days, cell-titer Glo, cell growth inhibition, read-out: BaF3_KRAS^G12D IC50
VALUE_TYPE: GI50

* Cc1cccc2cc(F)cc(-c3c(Cl)cc4c(N5CC6CCC(C5)N6)nc(OC[C@@]56CCCN5C[C@H](F)C6)nc4c3F)c12 [Compound 137] | 500 to 5000 nM
* Oc1cc(-c2c(Cl)cc3c(N4CC5CCC(C4)N5)nc(OC[C@]45CCCN4C[C@@H](F)C5)nc3c2F)c2c(Cl)cccc2c1 (single isomer, unassigned) [Compound 101] | < 500 nM
* Cc1cc(N)nc(-c2c(Cl)cc3c(N4CC5CCC(C4)N5)nc(OC[C@@]45CCCN4C[C@H](F)C5)nc3c2F)c1C(F)(F)F [Compound 142] | < 500 nM
* CCc1c(F)ccc2cc(O)cc(-c3c(OC)cc4c(N5CC6CCC(C5)N6)nc(OC[C@@]56CCCN5C[C@H](F)C6)nc4c3F)c12 [Compound 164] | < 500 nM
* CCc1cccc2cc(O)cc(-c3c(Cl)cc4c(N5CC6CCC(C5)N6)nc(OC[C@@]56CCCN5C[C@H](F)C6)nc4c3F)c12 (single isomer, unassigned) [Compound 133] | < 500 nM

GI50 for CN(C)CCCOc1nc(N2CC3CCC(C2)N3)c2cc(Cl)c(-c3cccc4cccc(Cl)c34)c(F)c2n1 [Compound 6] ?
500 to 5000 nM

Given the entry Cc1ccc2[nH]ncc2c1-c1c(C#N)cc2c(N3CC4CCC(C3)N4)nc(OC[C@@]34CCCN3C[C@H](F)C4)nc2c1F [Compound 92] , report its measured GI50.
< 500 nM

Look up GI50 for this compound: Fc1c(-c2cccc3cccc(Cl)c23)c(Cl)cc2c(N3CCNCC3)nc(OCC34CCCN3CCC4)nc12 [Compound 28]
< 500 nM

Find the recorded GI50 belonging to N#Cc1cc2c(N3CC4CCC(C3)N4)nc(OC[C@@]34CCCN3C[C@H](F)C4)nc2c(F)c1-c1cc(O)cc2cccc(Cl)c12 (single isomer, unassigned) [Compound 120] and report it.
< 500 nM

What value of GI50 has been recorded for this entry: CC(C)N1CC(Nc2nc(N3C[C@@H](C)NC[C@@H]3C)c3cc(Cl)c(-c4cc(O)cc5ccccc45)c(F)c3n2)C1 [Compound 49]
> 5000 nM

Param item = C#Cc1c(F)ccc2cc(O)cc(-c3c(OCC)cc4c(N5CC6CCC(C5)N6)nc(OC[C@@]56CCCN5C[C@H](F)C6)nc4c3F)c12 [Compound 160] ; retrieve measured GI50.
< 500 nM

Can you share its GI50? I mean this compound: CN1CCC2CCN(c3nc(N4CC5CCC(C4)N5)c4cc(Cl)c(-c5cc(O)cc6ccccc56)c(F)c4n3)CC21 (stereo not drawn) [Compound 42]
500 to 5000 nM
